# experimental-target: Cellular tumor antigen p53 (Homo sapiens)
# measurement-protocol: TOX21_p53_BLA_p3_ratio: Tox21 HCT-116 p53 Agonism Beta-lactamase Assay, Ratio, Phase 3 (AID 2283596)
Inconclusive results are not listed. Activity calls are given as the source filed them. The calls were made as follows: active = hit-call score of the fitted dose curve at least 0.9, where 1 is the maximum; inconclusive = response in the unintended direction; inactive = score below 0.9.
Hi there, use one of these labels in your reply, thanks! class 1 = active, class 0 = inactive

CCCCCCOc1ccc(C(=N)N(CCCC)CCCC)c2ccccc12	class 1
CCOc1cc([N+](=O)[O-])c(OCC)cc1N1CCOCC1	class 0
Cc1cccc(Oc2ccccc2)c1	class 0

For NC(=O)c1ncn([C@@H]2O[C@H](CO)[C@@H](O)[C@H]2O)c1N , what call appears in the results of this test? class 0

Can you check COc1cc(NS(=O)(=O)c2ccc(N)cc2)nc(OC)n1 next? class 0

Can you check CCC[C@H](N[C@@H](C)C(=O)N1[C@H](C(=O)O)C[C@@H]2CCCC[C@@H]21)C(=O)OCC next? class 0

Can you check CCOc1cc(OCC)c(C(C)=O)cc1OCC next? class 0

Can you check CC(C)C[C@H](NC(=O)[C@H](CCc1ccccc1)NC(=O)CN1CCOCC1)C(=O)N[C@@H](Cc1ccccc1)C(=O)N[C@@H](CC(C)C)C(=O)[C@@]1(C)CO1 next? class 1

Can you check CC(CO)(CO)C(=O)O next? class 0

Can you check O=C1C(=O)c2ccccc2C(O)=C1C1CCC(c2ccc(Cl)cc2)CC1 (centres undefined) next? class 1

Can you check CC(=C\c1ccccc1)/C=C1/SC(=S)N(CC(=O)O)C1=O next? class 0

Can you check N=c1nc(N2CCCCC2)cc(N)n1O next? class 0

Can you check O=[N+]([O-])c1ccccc1Nc1ccccc1 next? class 0

Can you check CC1=CCCC(C)(C)C12CCC(C)O2 (centres undefined) next? class 0

Can you check Cc1cc2cc3c(C)cc(=O)oc3c(C)c2o1 next? class 0

Can you check O=C(O)c1cccc(Cl)c1Cl next? class 0

Can you check CC(=O)Nc1ccccc1C next? class 0

Can you check Cc1c(C(C)C)c(=O)n(-c2ccccc2)n1C next? class 0

Can you check CCN(CC)CCOCCOC(=O)C(CC)(CC)c1ccccc1 next? class 0

Can you check COc1c(C)c2c(c(O)c1C/C=C(\C)CCC(=O)O)C(=O)OC2 next? class 1

Can you check O=C1OC(CN2CCOCC2)CN1N=Cc1ccc([N+](=O)[O-])o1 (centres undefined) next? class 0

###

# measurement-protocol: BSK_CASM3C_Proliferation: Cell Proliferation Assessment in the BioMAP Diversity Plus: CASM3C Assay (AID 2283047);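 also: sulforhodamine B total protein stain as relative cell number at 560 nm; sub-confluent cells exposed 48 h before staining; fitted both ways against DMSO so gain or loss of cell number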
# condition-info: primary human coronary artery smooth muscle cells
The source made the active and inactive calls. The calls were made as follows: active = hit-call score of the fitted dose curve at least 0.9, where 1 is the maximum; inactive = score below 0.9.
Hi there, use one of these labels in your reply, thanks! active, inactive

Sc1nc2ccccc2s1	inactive
Cc1cc(-n2nc3ccc(Cl)cc3n2)c(O)c(C(C)(C)C)c1	inactive
O=[N+]([O-])c1cc(S(=O)(=O)Nc2ccccc2)ccc1Nc1ccccc1	inactive
Cc1c(C(N)=O)cc([N+](=O)[O-])cc1[N+](=O)[O-]	inactive
CCCCCCCCCCCCCCCCCC[N+](C)(C)C	active
CN(C)Cc1cc(C(C)(C)C)c(O)c(C(C)(C)C)c1	inactive

For CCC(C)=NO , what call appears in the results of this test? inactive

Can you check COc1cc(CNC(=O)CCCC/C=C/C(C)C)ccc1O next? inactive
